# tgt: NgtS (Streptococcus pneumoniae, UniProt A0A0H2UMY0)
# Construct: residues 25-491, secretion signal peptide and lipobox removed, C-terminal six-histidine tag, expressed in E. coli BL21 Star (DE3)
# Sequence (A0A0H2UMY0 25-491): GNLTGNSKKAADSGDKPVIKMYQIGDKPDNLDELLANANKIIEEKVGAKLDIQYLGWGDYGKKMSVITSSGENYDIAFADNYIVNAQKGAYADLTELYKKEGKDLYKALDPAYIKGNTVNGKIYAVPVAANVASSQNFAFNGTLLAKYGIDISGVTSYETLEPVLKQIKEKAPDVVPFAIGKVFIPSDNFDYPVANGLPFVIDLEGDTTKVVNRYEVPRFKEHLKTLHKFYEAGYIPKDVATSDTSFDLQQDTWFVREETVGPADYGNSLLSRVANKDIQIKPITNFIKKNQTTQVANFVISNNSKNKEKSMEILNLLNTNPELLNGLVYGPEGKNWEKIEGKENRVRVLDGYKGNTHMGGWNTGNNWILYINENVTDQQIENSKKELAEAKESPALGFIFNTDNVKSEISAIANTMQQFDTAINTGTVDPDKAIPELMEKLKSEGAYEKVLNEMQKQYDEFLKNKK
# procedure.details: UV difference titration
# conditions.used: read-out: affinity constant; bimolecular binding model with ligand depletion
endpoint.name: pKd
Would you please state pKd, meaning minus log10 of the concentration in mol/L, as a bare number?

Respond only with pKd recorded for CC(=O)N[C@H]1C(O)O[C@H](CO)[C@@H](O[C@@H]2O[C@H](CO)[C@@H](O)[C@H](O)[C@@H]2O)[C@@H]1O (stereo partly shown)
4.08
